Procedure text: folding stability dG unfold (combined trypsin and chymotrypsin); higher = more stable
Response key: Condition met means folding stability dG unfold >= 0.5 kcal/mol; Condition not met means folding stability dG unfold < 0.5 kcal/mol.

Dear colleague, could you confirm whether SAGGSAGGSMTIVDPETGETLEIIEVKKNEDGKESFIFRISSPKPRYFIIDKDGNIRVIEKKDSAGGSAGGS [r12_205_TrROS_Hall] has folding stability dG unfold at or above 0.5 kcal/mol?
Condition met

Dear colleague, could you confirm whether SAGGSAGGMYVKIKVTMTADELKKLFPNIKKGEKVTVELVIKVEKAPPVKVEKKKEKKVEVKLKSAGGSAGG [r6_211_TrROS_Hall] has folding stability dG unfold at or above 0.5 kcal/mol?
Condition met

Dear colleague, could you confirm whether SAGGSAGGSAGMRVVEVYRLPDGSYRIRFPDGTEVEVSPEELEEVARRLGADEVRVRPELSAGGSAGGSAGG [r11_312_JUSTAS] has folding stability dG unfold at or above 0.5 kcal/mol?
Condition met

Dear colleague, could you confirm whether SDEGYKVEINPMIHRTDGKVTIMFMIQIKPGLDDLKIKIKLRLPDGKPMKVDYQRNPDNGFIMVSATMPPSA [r9_159_TrROS] has folding stability dG unfold at or above 0.5 kcal/mol?
Condition met

Dear colleague, could you confirm whether SAGAKVTVEPVKVEPLPNGEVKVTAKVTIYDPNTTKPTEIEVTGTYKLHPNGKPVKPETIVAEAIKKAASAG [r5_604_TrMRF] has folding stability dG unfold at or above 0.5 kcal/mol?
Condition not met

Dear colleague, could you confirm whether SAGGSAGGSMVYVVKVEIPETGEEYEFLNPEDKETVEREVRELFPDPEVKAEIEEIEVEPELLSAGGSAGGS [r12_92_TrMRF] has folding stability dG unfold at or above 0.5 kcal/mol?
Condition not met

Dear colleague, could you confirm whether SAGGSSITVTDETTVEVSPTGSPTGPPVATVTTTTSTTTTTYYDPKTGTSTETTTTTTTTTTSTGASAGGSA [r2_269_JUSTAS] has folding stability dG unfold at or above 0.5 kcal/mol?
Condition not met
